# EXPERIMENTAL_SYSTEM: GSK3a (GST-full length GSK3a) (Homo sapiens, UniProt P49840)
# Construct: GST-full length GSK3a [SignalChem G08-10G]; purchased SignalChem G08-10G
# Sequence (P49840 whole entry): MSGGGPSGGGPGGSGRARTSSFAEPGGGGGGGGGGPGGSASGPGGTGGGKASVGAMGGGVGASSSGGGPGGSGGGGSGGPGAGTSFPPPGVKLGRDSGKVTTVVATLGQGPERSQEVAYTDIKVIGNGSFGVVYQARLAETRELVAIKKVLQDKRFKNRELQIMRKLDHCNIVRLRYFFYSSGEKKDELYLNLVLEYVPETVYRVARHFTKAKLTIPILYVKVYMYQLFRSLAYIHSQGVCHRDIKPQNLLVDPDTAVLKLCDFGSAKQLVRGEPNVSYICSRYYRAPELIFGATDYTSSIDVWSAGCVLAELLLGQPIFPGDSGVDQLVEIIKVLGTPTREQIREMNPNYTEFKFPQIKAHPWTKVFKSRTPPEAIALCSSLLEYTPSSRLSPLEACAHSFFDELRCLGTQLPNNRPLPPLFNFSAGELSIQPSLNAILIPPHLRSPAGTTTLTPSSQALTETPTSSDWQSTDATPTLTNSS
# ASSAY_NOTES: GSK3a TR-FRET kinase inhibition assay
# Assay type: biochemical
# DETAILS: 1 mM ATP; Table 5; read-out: GSK3α TR-FRET 1 mM ATP Average IC50
pIC50: −log10 of the molar value.
The entries below come with measured pIC50 values attached.

See these solved cases before continuing.
- MOLECULE: "CC(C)Oc1cccc(C2(C)C3=C(CC(C)(C)CC3=O)Nc3ncc(C(F)F)c(C#N)c32)c1 (single isomer, unassigned) [650B]"
  READOUT_NAME: "pIC50"
  RESULT: "6.00 to 7.00"
- MOLECULE: "CN1C(=O)C2=C(CC1(C)C)Nc1ncc(F)c(C#N)c1C2(C)c1ccccc1 (single isomer, unassigned) [615B]"
  READOUT_NAME: "pIC50"
  RESULT: "≥ 7.00"

Lab note: next molecule to report on.
Query block: Entry Cn1ncc2c3c(ncc21)NC1=C(C(=O)CC(C)(C)C1)C3(C)c1ccccc1 (single isomer, unassigned) [609B] needs its pIC50 filled in; supply it.
Result block: 4.70 to 5.30

* * *

# EXPERIMENTAL_SYSTEM: GSK3b (GST-full length GSK3b) (Homo sapiens, UniProt P49841)
# Construct: GST-full length GSK3b: [SignalChem G08-9G]; purchased SignalChem G08-9G
# Sequence (P49841 whole entry): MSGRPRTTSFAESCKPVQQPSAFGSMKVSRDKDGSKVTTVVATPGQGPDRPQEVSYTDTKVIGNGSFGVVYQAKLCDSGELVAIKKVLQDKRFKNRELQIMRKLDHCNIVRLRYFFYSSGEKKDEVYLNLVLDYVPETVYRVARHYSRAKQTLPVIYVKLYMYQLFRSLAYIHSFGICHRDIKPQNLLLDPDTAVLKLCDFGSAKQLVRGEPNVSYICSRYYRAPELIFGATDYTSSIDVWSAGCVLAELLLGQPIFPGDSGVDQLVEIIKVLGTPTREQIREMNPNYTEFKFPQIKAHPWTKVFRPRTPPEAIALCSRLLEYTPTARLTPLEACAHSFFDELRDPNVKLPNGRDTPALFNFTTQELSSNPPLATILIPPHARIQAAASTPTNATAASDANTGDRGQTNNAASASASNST
# ASSAY_NOTES: GSK3b TR-FRET kinase inhibition assay
# Assay type: biochemical
# DETAILS: 1 mM ATP; Table 5; read-out: GSK3β TR-FRET 1 mM ATP Average IC50
READOUT_NAME: IC50

Please review the following examples before continuing.
- COMPOUND: "CC1(C)CC(=O)C2=C(C1)Nc1ncc(C#N)c(C#N)c1C2(C)c1ccccc1 (single isomer, unassigned) [605A]"
  IC50: "0.1 to 1 µM"
- COMPOUND: "CC1(C)CC2=C(C(=O)N1)C(C)(c1cccc(S(C)(=O)=O)c1)c1cc(C3CC3)cnc1N2 (single isomer, unassigned) [647A]"
  IC50: "0.1 to 1 µM"
- COMPOUND: "C=C(C)c1cnc2c(c1C#N)C(C)(c1ccccc1)C1=C(CC(C)(C)CC1=O)N2 (single isomer, unassigned) [620A]"
  IC50: "5 to 20 µM"
- COMPOUND: "CC1(C)CC2=C(C(=O)N1)C(C)(c1cccc(S(C)(=O)=O)c1)c1cc(F)cnc1N2 (single isomer, unassigned) [638A]"
  IC50: "0.1 to 1 µM"
- COMPOUND: "Cc1cnc2c(c1C)C(C)(c1ccccc1)C1=C(CC(C)(C)CC1=O)N2 (single isomer, unassigned) [601A]"
  IC50: "1 to 5 µM"

Query block: Answer with the recorded IC50 of CC(=O)c1cnc2c(c1C#N)C(C)(c1ccccc1)C1=C(CC(C)(C)CC1=O)N2 (single isomer, unassigned) [621B] only.
Result block: 5 to 20 µM

Query block: Query IC50 for Cc1ccc(C2(C)C3=C(CC(C)(C)CC3=O)Nc3ncc(F)cc32)cc1S(C)(=O)=O (single isomer, unassigned) [644A]
Result block: 0.1 to 1 µM

Query block: Supply IC50 value. Item: CC1(C)CC(=O)C2=C(C1)Nc1ncc3ccccc3c1C2(C)c1ccccc1 (single isomer, unassigned) [606A]
Result block: 5 to 20 µM
